test system: Escherichia coli TOP10; assay: shrunken log2 fold change of peptide-encoding DNA abundance (4.5 h post-induction vs induction); higher = less antimicrobial activity (less host growth inhibition); conditions: time post-induction: 4.5 h; library: site-saturation at positions 5, 18, 19, 20;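 also: peptides expressed intracellularly from a pBAD plasmid library in pooled LB shake-flask culture, induced with 0.3% L-arabinose, DNA abundance read by NGS, three biological replicates, DESeq2 with apeglm shrinkage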
reported.property: shrunken log2 fold change

seq.text: RRIRKRPPRLPRPRPRPFWEPRP
experimental.value: 0.341
//
seq.text: RRIRWRPPRLPRPRPRPHFGPRP
experimental.value: 0.168
//
seq.text: RRIRQRPPRLPRPRPRPGCLPRP
experimental.value: 0.129
//
seq.text: RRIRGRPPRLPRPRPRPSQHPRP
experimental.value: 0.0187
//
seq.text: RRIRTRPPRLPRPRPRPWNSPRP
experimental.value: -0.0351
//
seq.text: RRIRPRPPRLPRPRPRPEFDPRP
experimental.value: 0.33
//
seq.text: RRIRYRPPRLPRPRPRPIMIPRP
experimental.value: -0.0191
//
seq.text: RRIRPRPPRLPRPRPRPHQNPRP
experimental.value: -0.124
//
seq.text: RRIRFRPPRLPRPRPRPYMFPRP
experimental.value: -1.11
//
seq.text: RRIRVRPPRLPRPRPRPRRKPRP
experimental.value: 0.0637
//
seq.text: RRIRMRPPRLPRPRPRPNFMPRP
experimental.value: -0.0364
//
seq.text: RRIRHRPPRLPRPRPRPNDSPRP
experimental.value: -0.072
//
seq.text: RRIRCRPPRLPRPRPRPTSWPRP
experimental.value: 0.0567
//
seq.text: RRIRMRPPRLPRPRPRPTEAPRP
experimental.value: 0.0796
